B1: glmS ribozyme (parent)
chain: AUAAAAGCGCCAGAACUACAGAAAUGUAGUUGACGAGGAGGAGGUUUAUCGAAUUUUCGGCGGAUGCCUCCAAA

Variants of: B1
Experiment: self-cleavage kobs at 10000 uM GlcN6P; higher = faster cleavage; RNA array
Conditions: with glucosamine-6-phosphate
Variants at the floor of the assay were thinned out.
measured.parameter: self-cleavage kobs at 10000 uM GlcN6P

>>> print(df.to_string())
           variant_code      measured
 0        A6G C58U A64U   < 1e-05 s⁻¹
 1            G29A U31G  0.000272 s⁻¹
 2       C10G A14C G63U   < 1e-05 s⁻¹
 3            U47G C67U   0.00343 s⁻¹
 4  G35C A48G G59U G60A   < 1e-05 s⁻¹
 5            C50A G51U   < 1e-05 s⁻¹
 6            G35A G40C   < 1e-05 s⁻¹
 7       G43A C50A A64U   < 1e-05 s⁻¹
 8            C11U A42G    0.0022 s⁻¹
 9       C50U A64C C71A   < 1e-05 s⁻¹
10        G9U G43U A53C   < 1e-05 s⁻¹

Origin of values: the supplement of paper PMC7125110
